Tested on: SK-MEL-28 melanoma
experiment-summary: NCI-60 one-dose screen, 48 h (100 = growth as untreated, 0 = no growth, -100 = all killed)
assay-context: 10 µM unless noted
About 83,000 compounds went through this panel and 20% of them were active in at least one assay; those are over-represented in the sample as a whole.
parameter-measured: growth (%)
Reply with just the number (in %).

Req: Given `CC1=C(C#N)C(C)(C)C(C#N)=C(C)N1` , state its recorded growth.
Resp: 110

Req: What about this molecule? COc1cc(C2C=C(C)N=C3SC(C)=NN32)cc(OC)c1OC (stereo not given)
Resp: 119

Req: What about this molecule? `O=c1oc2c([nH]c3ccc4ccccc4c32)c2ccccc12`
Resp: 134

Req: What about this molecule? CC(=O)Nc1ccc(S(=O)(=O)N2C(=O)CCC2C(=O)Nc2ccc(Br)cc2)cc1 (stereo not given)
Resp: 50.2

Req: What about this molecule? C=CCOc1ccc(/C(O)=C2\C(=O)C(=O)N(c3nccs3)C2c2ccccc2F)cc1 (stereo not given)
Resp: 107

Req: What about this molecule? `COc1cccc(-c2nc3sccn3c2-c2ccnc(NCCNS(=O)(=O)c3ccccc3)n2)c1`
Resp: 66.4

Req: What about this molecule? `COc1ccc(/C=C/C(=O)c2ccc(B(O)O)cc2)cc1O`
Resp: 90.3

Req: What about this molecule? `Cc1cc(C)c(S(=O)(=O)N2CCN(c3cc4c(cc3F)c(=O)c(C(=O)O)cn4C3CC3)CC2)c(C)c1`
Resp: 69.1

Req: What about this molecule? `COC(=O)CC/C(C)=N\Nc1ccc([N+](=O)[O-])cc1`
Resp: 96

Req: What about this molecule? `Cc1ccc2c(c1)C(=O)C(c1c(-c3[nH]c(=O)c4ccc(C)cc4c3O)c(O)c3ccccc3c1O)=NC2=O`
Resp: 34.9

====

Test system: SN12C renal
experiment-summary: NCI-60 one-dose screen, 48 h
assay-context: 10 µM unless noted
Experimental: Growth inhibition of the SN12C human tumor cell line is measured as a screen for anti-cancer activity. Cells are grown in 96 well plates and exposed to the test compound for 48 hours. Compounds are tested at a single concentration, which is 10^-5 M for most compounds. The reported endpoint is percent growth (GI% or GIPRCNT), where numbers from 0 - 100% represent growth inhibition, and numbers from -100% - 0 represent cell death. For example, a value of 40 represents 60% growth inhibition. […]
This is part of a sample that, as a whole, favours compounds with a hit. Of some 83,000 tested, about 20% had one in any assay. Calls of active or inactive are those of the source. The calls were made as follows: active = growth percent below 10; inactive = the rest.
Give your call using only these classes: Y for active, N for inactive

# example entries with known answers
[[record]]
molecule = "Nc1cccc2c1CN(C1CCC(=O)NC1=O)C2=O (stereo unspecified)"
category_label = "N"

[[record]]
molecule = "CCCCOc1nc2c(C)cccc2cc1C1CNC(=O)c2ccccc2N1 (stereo unspecified)"
category_label = "N"

[[record]]
molecule = "Cc1c(C2=NNC(c3ccc4c(c3)OCO4)C2)[n+]([O-])c2ccccc2[n+]1[O-] (stereo unspecified)"
category_label = "N"

[[record]]
molecule = "COc1ccc(-c2nc3sccn3c2-c2ccnc(NCCCNS(=O)(=O)c3ccc(F)cc3)n2)cc1"
category_label = "N"

[[record]]
molecule = "O=C(NNC(=S)Nc1ccccc1)c1ccccn1"
category_label = "N"


Req: Lab log entry: `CC(C)C[C@H](NC(=O)[C@H](Cc1ccccc1)n1ccc(N2CCCCC2)cc1=O)B(O)O` — outcome as called in the assay?
Resp: N

Req: What about this molecule? `CCN(CC)CCC(=O)c1cccc2ccccc12`
Resp: N

Req: What about this molecule? N#CC1=C(N)n2nc(-c3ccncc3)nc2NC1c1cccc2ccccc12 (stereo unspecified)
Resp: N

Req: What about this molecule? `CC(=O)OC[Si](C)(C)c1ccccc1`
Resp: N

Req: What about this molecule? N#CC1=C(N)OC2=C(C(=O)CCC2)C1c1ccco1 (stereo unspecified)
Resp: N

Req: What about this molecule? `C=C1C(=O)O[C@H]2[C@H]1CC/C(Cn1cc(-c3ccsc3)nn1)=C\CC[C@@]1(C)O[C@@H]21`
Resp: Y
